Each recorded value in this set is attributed to PubChem BioAssay (NCI).

test system: OVCAR-3 ovarian; assay: NCI-60 one-dose screen, 48 h (100 = growth as untreated, 0 = no growth, -100 = all killed); details: 10 µM unless noted
Compounds without any hit were thinned out: in the full panel of roughly 83,000, 20% have a hit. Activity calls are given as the source filed them. The calls were made as follows: active = growth percent below 10; inactive = the rest.
measure: growth

• COc1ccc(-c2csc(NC(=O)c3cc(OC)c(OC)c(OC)c3)n2)cc1 = 105% (inactive)

Below are 5 compounds. Give each one its growth.
1. O=C(C=C=Nc1ccccc1)C(=O)N=C=Cc1ccccc1
2. CCC(c1ccccc1)c1noc(CCN(CC)CC)n1 (stereo not given)
3. Cn1cc(-c2csc(-c3c[nH]c4ncccc34)n2)c2cc(F)cnc21
4. COc1cc(/C=C/C(=O)Nc2cccnc2Nc2cc(OC)c(OC)c(OC)c2)cc(OC)c1OC
5. COC(=O)[C@]12CC[C@@H](C)[C@H](C)[C@@H]1C1=CC[C@@H]3[C@@]4(C)C=C(O)C(=O)[C@@]5(C)COC(=C54)C[C@@]3(C)[C@]1(C)CC2

1. 13.5% (inactive)
2. 115% (inactive)
3. 87.8% (inactive)
4. 114% (inactive)
5. -92% (active)

List growth for every entry below, keeping the order given.
1. CCOc1nc(-c2ccccc2)cc2c(O)c(-c3nnco3)[nH]c(=O)c12
2. Clc1ccc2nc(Cl)c3ccccc3c2c1
3. CN(C)c1cccc2c(S(=O)(=O)N[C@H]3CC[C@H]4[C@@H]5CCc6cc(O)ccc6[C@H]5CC[C@]34C)cccc12
4. COc1ccc(CCN2CCCN3C2=Nc2ccccc2S3(=O)=O)cc1

27.8% (inactive)
35.3% (inactive)
19.7% (inactive)
6.69% (active)
